Target: DCR-1•DRH-1 complex (DCR-1•(OSF)DRH-1) (C. elegans, UniProt P34529 1-1910; G5EDI8 1-1037)
Assay: pull-down
measured-attribute: percent recovery normalized to WT RDE-4

Data request: Answer with reported percent recovery normalized to WT RDE-4 of RDE-4 dsRBM2 point mutant R1R2^AAR3 (K217A/K218A) (natural protein, C. elegans, UniProt G5EBF5 1-385, looked up) MDLTKLTFESVFGGSDVPMKPSRSEDNKTPRNRTDLEMFLKKTPLMVLEEAAKAVYQKTPTWGTVELPEGFEMTLILNEITVKGQATSKKAARQKAAVEYLRKVVEKGKHEIFFIPGTTKEEALSNIDQISDKAEELKRSTSDAVQDNDNDDSIPTSAEFPPGISPTENWVGKLQEKSQKSKLQAPIYEDSKNERTERFLVICTMCNQKTRGIRSKAADAKNLAAWLMWKALEDGIESLESYDMVDVIENLEEAEHLLEIQDQASKIKDKHSALIDILSDKKRFSDYSMDFNVLSVSTMGIHQVLLEISFRRLVSPDPDDLEMGAEHTQTEEIMKATAEKEKLRKKNMPDSGPLVFAGHGSSAEEAKQCACKSAIIHFNTYDFTD
Data returned: > 100%
